Tested on: Human Thrombocytes
Assay: Fibrinogen Binding to Human Thrombocytes (I125-fibrinogen, gel-filtered platelets)
Details: inhibition of I125-fibrinogen binding to gel-filtered human platelets, ADP, 20 minutes, ambient temperature; read-out: Fibrinogen Binding test IC50
Where a name gives a salt, the structure may show the parent alone.
IC50 listing for selected compounds.
Give the number; nM is assumed, so skip it.

[
  {
    "Compound": "CCc1nn(-c2ccc(C(=N)N)cc2)c(=O)n1-c1ccc(CCC(=O)OC)cc1 [2(119), hydrochloride]",
    "Experimental value": 280
  },
  {
    "Compound": "N=C(N)c1ccc(N2CCN(CCc3ccc(C(=O)O)cc3)C2=O)cc1",
    "Experimental value": 860
  },
  {
    "Compound": "N=C(N)c1ccc(-n2ccn(-c3ccc(CC(C(=O)O)N(Cc4ccccc4)Cc4ccccc4)cc3)c2=O)cc1 (centres unmarked)",
    "Experimental value": 370
  },
  {
    "Compound": "N=C(N)c1ccc(N2CCN(c3ccc(SCC(=O)O)cc3)C2=O)cc1",
    "Experimental value": 210
  },
  {
    "Compound": "COC(=O)CCc1ccc(N2CCN(c3ccc(CN)cc3C)C2=O)cc1",
    "Experimental value": 3000
  },
  {
    "Compound": "COC(=O)CCc1ccc(-n2cc(-c3ccc(C(=N)N)cc3)n(C)c2=O)cc1 [2(81), hydrochloride]",
    "Experimental value": 19000
  }
]

Field request: IC50 | item: COC(=O)CCc1ccc(-n2ccn(-c3ccc(C(=N)N)cc3)c2=O)cc1 [2(58), hydrochloride]
4700

Field request: IC50 | item: `CC(C)(CC(=O)O)c1ccc(N2CCN(c3ccc(C(=N)N)cc3)C2=O)cc1`
3600

Field request: IC50 | item: COC(=O)CCN1CCN(c2ccc(-c3ccc(C(=N)N)cc3)cc2)S1(=O)=O [2(20), hydrochloride]
5700

Field request: IC50 | item: `COC(=O)CCc1ccc(-n2cnn(-c3ccc(C(N)=NC(=O)OC)cc3)c2=O)cc1`
5700

Field request: IC50 | item: COC(=O)COc1ccc(N2CCN(c3ccc(CN)cc3)C2=O)cc1 [Example 8, hydrochloride]
750

Field request: IC50 | item: COC(=O)CCc1ccc(-n2c(C)nn(-c3ccc(C(=N)N)cc3)c2=O)cc1 [2(118), hydrochloride]
2000

Field request: IC50 | item: COC(=O)CCc1ccc(N2CCCN(c3ccc(CN)cc3)C2=O)cc1 [8(1), hydrochloride]
68000

Field request: IC50 | item: N=C(N)c1ccc(-c2ccc(C3CN(CCC(=O)O)C(=O)N3)cc2)cc1 (centres unmarked) [4(15), hydrochloride]
42

Field request: IC50 | item: `N=C(N)c1ccc(N2CCC(N3CCN(CCC(=O)O)C3=O)CC2)cc1`
470

Field request: IC50 | item: `N=C(N)c1ccc(-c2ccc(N3CCCN(CCC(=O)O)C3=O)cc2)cc1`
3900

====

pIC50 listing for selected molecules.
Test system: Human Thrombocytes
Test: Fibrinogen Binding to Human Thrombocytes (I125-fibrinogen, gel-filtered platelets)
Settings: inhibition of I125-fibrinogen binding to gel-filtered human platelets, ADP, 20 minutes, ambient temperature; read-out: Fibrinogen Binding test IC50
Where a name gives a salt, the structure may show the parent alone.
Scale for pIC50: -log10 of concentration given in mol/L; no unit attached.

[
  {
    "Molecule": "COC(=O)CCc1ccc(N2C(=O)CN(c3ccc(C(=N)N)cc3)C2=O)cc1 [2(53), hydrochloride]",
    "Experimental value": 5.35
  },
  {
    "Molecule": "Cc1cn(-c2ccc(C(=N)N)cc2)c(=O)n1-c1ccc(CCC(=O)O)cc1",
    "Experimental value": 7.68
  },
  {
    "Molecule": "N=C(N)c1ccc(-n2ccn(-c3ccc(CC(N)C(=O)O)cc3)c2=O)cc1 (stereo not shown)",
    "Experimental value": 7.60
  }
]

// moving on: another record for pIC50
Lab request: please report pIC50 under test system Human Thrombocytes for `N=C(N)c1ccc(N2CCCN(c3ccc(CCC(=O)O)cc3)C2=O)cc1`
5.62

====

Test system: Human Thrombocytes
Assay: Fibrinogen Binding to Human Thrombocytes (I125-fibrinogen, gel-filtered platelets)
Conditions: inhibition of I125-fibrinogen binding to gel-filtered human platelets, ADP, 20 minutes, ambient temperature; read-out: Fibrinogen Binding test IC50
Structures can show the parent of a compound that is named as a salt.
IC50 listing for selected compounds.
Give the number; nM is assumed, so skip it.

Use the examples below as a reference point.
[
  {
    "Compound": "COC(=O)C[S+]([O-])c1ccc(N2CCN(c3ccc(C(=N)N)cc3)C2=O)cc1 (centres unmarked)",
    "System under test": "Human Thrombocytes",
    "Measurement unit": "nM",
    "IC50": 420
  },
  {
    "Compound": "COC(=O)CCc1ccc(N2CCN(c3ccc(C(=N)N)cc3)S2(=O)=O)cc1 [2(57), hydrochloride]",
    "System under test": "Human Thrombocytes",
    "Measurement unit": "nM",
    "IC50": 640
  },
  {
    "Compound": "COC(=O)CCc1ccc(-n2c(C)cn(-c3ccc(C(=N)N)cc3)c2=O)cc1 [2(115), hydrochloride]",
    "System under test": "Human Thrombocytes",
    "Measurement unit": "nM",
    "IC50": 530
  },
  {
    "Compound": "N=C(N)c1ccc(-c2ccc(-c3cn(CCC(=O)O)c(=O)[nH]3)cc2)cc1 [1(117), hydrochloride]",
    "System under test": "Human Thrombocytes",
    "Measurement unit": "nM",
    "IC50": 230
  },
  {
    "Compound": "COC(=O)CCc1ccc(-n2ccn(-c3ccc(C(=N)NC(=O)OC)cc3)c2=O)cc1",
    "System under test": "Human Thrombocytes",
    "Measurement unit": "nM",
    "IC50": 8000
  }
]

Lab request: please report IC50 under test system Human Thrombocytes for `Cc1cc(CN)ccc1N1CCN(c2ccc(CCC(=O)O)cc2)C1=O`
3600

Lab request: please report IC50 under test system Human Thrombocytes for CCOC(=O)CCN1CCCN(c2ccc(-c3ccc(C(=N)N)cc3)cc2)C1=O [2(4), hydrochloride]
15000

Lab request: please report IC50 under test system Human Thrombocytes for `N=C(N)c1ccc(N2CCN(c3ccc(CCC(=O)O)cc3)C2=O)cc1`
17

====

Tested on: Human Thrombocytes
Test: Fibrinogen Binding to Human Thrombocytes (I125-fibrinogen, gel-filtered platelets)
Details: inhibition of I125-fibrinogen binding to gel-filtered human platelets, ADP, 20 minutes, ambient temperature; read-out: Fibrinogen Binding test IC50
Counter-ions that a name gives are not always drawn.
pIC50 listing for selected molecules.
Scale for pIC50: -log10 of concentration given in mol/L; no unit attached.

Use the examples below as a reference point.
[
  {
    "Molecule": "CCc1nn(-c2ccc(C(=N)N)cc2)c(=O)n1-c1ccc(CCC(=O)O)cc1 [1(140)]",
    "pIC50": 7.68
  },
  {
    "Molecule": "COC(=O)CCN1CC(c2ccc(-c3ccc(C(=N)N)cc3)cc2)N(c2ccccc2)C1=O (stereo not drawn) [4(9), hydrochloride]",
    "pIC50": 5.59
  },
  {
    "Molecule": "COC(=O)CC(C)(C)c1ccc(N2CCN(c3ccc(C(=N)N)cc3)C2=O)cc1 [2(47), hydrochloride]",
    "pIC50": 4.49
  },
  {
    "Molecule": "N=C(N)c1ccc(-n2ncn(-c3ccc(CCC(=O)O)cc3)c2=O)cc1 [1(145)]",
    "pIC50": 8.11
  },
  {
    "Molecule": "N=C(N)c1ccc(-c2ccc(N3CC(=O)N(CCC(=O)O)C3=O)cc2)cc1 [1(2)]",
    "pIC50": 7.02
  },
  {
    "Molecule": "COC(=O)CN1CCN(c2ccc(-c3ccc(C(=N)N)cc3)cc2)C1=O [Example 2, hydrochloride]",
    "pIC50": 5.22
  },
  {
    "Molecule": "Cc1cc(C(=N)N)ccc1N1CCN(c2ccc(CCC(=O)O)cc2)C1=O [1(36)]",
    "pIC50": 7.43
  },
  {
    "Molecule": "N=C(N)c1ccc(-n2ccn(-c3ccc(C=CC(=O)O)cc3)c2=O)cc1 [1(147)]",
    "pIC50": 7.57
  }
]

Field request: pIC50 | item: COC(=O)CCn1cc(-c2ccc(-c3ccc(C(=N)N)cc3)cc2)[nH]c1=O [2(104), hydrochloride]
5.15

Field request: pIC50 | item: COC(=O)CCN1CCN(C2CCN(c3ccc(C(=N)N)cc3)CC2)C1=O [4(11), hydrochloride]
4.35

Field request: pIC50 | item: CC(=O)N(CCN1CCN(c2ccc(C(=N)N)cc2)C1=O)CC(=O)O [Example 30]
5.36
